target-under-test: Sodium/hydrogen exchanger 1 (Homo sapiens, UniProt P19634)
Sequence (P19634 whole entry): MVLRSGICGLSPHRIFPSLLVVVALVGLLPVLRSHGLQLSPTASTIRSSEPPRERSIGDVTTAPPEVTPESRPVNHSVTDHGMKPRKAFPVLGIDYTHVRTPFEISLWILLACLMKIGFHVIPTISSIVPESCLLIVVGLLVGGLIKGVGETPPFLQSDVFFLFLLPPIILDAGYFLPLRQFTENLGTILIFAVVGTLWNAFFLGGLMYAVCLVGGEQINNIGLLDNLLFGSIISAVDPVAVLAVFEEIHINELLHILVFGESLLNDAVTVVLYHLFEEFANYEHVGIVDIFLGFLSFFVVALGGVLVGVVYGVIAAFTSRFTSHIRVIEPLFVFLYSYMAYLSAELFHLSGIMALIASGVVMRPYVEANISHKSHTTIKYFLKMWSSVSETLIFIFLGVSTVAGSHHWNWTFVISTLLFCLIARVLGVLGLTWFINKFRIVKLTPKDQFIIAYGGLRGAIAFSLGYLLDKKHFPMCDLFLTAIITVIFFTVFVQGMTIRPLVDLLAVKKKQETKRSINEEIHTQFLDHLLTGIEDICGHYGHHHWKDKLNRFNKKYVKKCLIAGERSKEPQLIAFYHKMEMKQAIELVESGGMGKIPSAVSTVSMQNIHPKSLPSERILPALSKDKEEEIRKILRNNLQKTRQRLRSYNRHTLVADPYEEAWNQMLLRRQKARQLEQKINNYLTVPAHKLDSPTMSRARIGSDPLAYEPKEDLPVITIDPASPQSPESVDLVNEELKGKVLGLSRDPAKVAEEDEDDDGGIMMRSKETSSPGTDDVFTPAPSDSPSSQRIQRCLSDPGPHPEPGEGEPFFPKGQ
procedure-summary: Inhibition of NHE1 in human HT-29 cells assessed as intracellular pH change after 30 mins
observation-type: IC50 (µM)

(A) N=C(N)NC(=O)c1ccc(C2CCN(C(=O)c3ccc(-n4ccnc4)cc3)CC2)c(C(F)(F)F)c1
(B) N=C(N)NC(=O)c1ccc(C2CCN(C(=O)c3ccc(O)nc3)CC2)c(C(F)(F)F)c1
(C) CCCC(=O)N1CCC(c2ccc(C(=O)NC(=N)N)cc2C(F)(F)F)CC1
rank_up(items): orders items by reported IC50 in ascending numerical order. Please list each label once, in the requested order.
B, C, A
(B: 0.019 µM, C: 0.029 µM, A: 0.065 µM)

(I) CS(=O)(=O)c1ccc(C(=O)N2CCC(c3ccc(C(=O)NC(=N)N)cc3C(F)(F)F)CC2)cc1
(II) N=C(N)NC(=O)c1ccc(C2CCN(C(=O)c3ccc(-c4ccccc4)cc3)CC2)c(C(F)(F)F)c1
(III) CNS(=O)(=O)c1ccc(C(=O)N2CCC(c3ccc(C(=O)NC(=N)N)cc3C(F)(F)F)CC2)cc1
(IV) N#Cc1ccccc1C(=O)N1CCC(c2ccc(C(=O)NC(=N)N)cc2C(F)(F)F)CC1
(V) N=C(N)NC(=O)c1ccc(C2CCN(C(=O)c3ccccc3Cl)CC2)c(C(F)(F)F)c1
Arrange these compounds by their IC50, starting with the largest number. Please list each label once, in the requested order.
II, V, IV, III, I

----------
procedure-summary: Metabolic stability in human liver microsomes at 1 uM up to 60 mins by LC/MS/MS analysis relative to hepatic blood flow
Assay type: ADME, Microsome
condition-context: read-out: Stability
observation-type: hepatic extraction ratio at 1 h, 1 µM

Completed entries (count: 4):
Any idea what its hepatic extraction ratio at 1 h, 1 µM is? The molecule is N=C(N)NC(=O)c1ccc(C2CCN(C(=O)c3ccc(O)cc3)CC2)c(C(F)(F)F)c1
0.27

Any idea what its hepatic extraction ratio at 1 h, 1 µM is? The molecule is Cn1cncc1C(=O)N1CCC(c2ccc(C(=O)NC(=N)N)cc2C(F)(F)F)CC1
0.23

Any idea what its hepatic extraction ratio at 1 h, 1 µM is? The molecule is N=C(N)NC(=O)c1ccc(C2CCN(C(=O)c3ccc(C(N)=O)cc3)CC2)c(C(F)(F)F)c1
0.24

Any idea what its hepatic extraction ratio at 1 h, 1 µM is? The molecule is N=C(N)NC(=O)c1ccc(C2CCN(C(=O)c3cccnc3)CC2)c(C(F)(F)F)c1
0.33

(A) Cn1ccnc1C(=O)N1CCC(c2ccc(C(=O)NC(=N)N)cc2C(F)(F)F)CC1
(B) N=C(N)NC(=O)c1ccc(C2CCN(C(=O)c3ccc(S(N)(=O)=O)cc3)CC2)c(C(F)(F)F)c1
Given A and B , report the one with the higher recorded hepatic extraction ratio at 1 h, 1 µM. Reply briefly: the label of your chosen item.
A
(A: 0.47, B: 0.24)

----------
target-under-test: Sodium/hydrogen exchanger 1 (Homo sapiens, UniProt P19634)
procedure-summary: Inhibition of NHE1 in human HT-29 cells assessed as intracellular pH change after 30 mins
observation-type: IC50 (µM)

Completed entries (count: 8):
Any idea what its IC50 is? The compound is CC(=O)N1CCC(c2cc(C)c(C(=O)NC(=N)N)cc2S(C)(=O)=O)CC1
0.015

Any idea what its IC50 is? The compound is N=C(N)NC(=O)c1ccc(C2CCN(C(=O)c3cccc(-c4cnco4)c3)CC2)c(C(F)(F)F)c1
0.033

Any idea what its IC50 is? The compound is COCC(=O)N1CCC(c2ccc(C(=O)NC(=N)N)cc2C(F)(F)F)CC1
0.01

Any idea what its IC50 is? The compound is CC(C)CC(=O)N1CCC(c2ccc(C(=O)NC(=N)N)cc2C(F)(F)F)CC1
0.047

Any idea what its IC50 is? The compound is N=C(N)NC(=O)c1ccc(C2CCN(C(=O)C3CCCC3)CC2)c(C(F)(F)F)c1
0.064

Any idea what its IC50 is? The compound is N=C(N)NC(=O)c1ccc(N2CCN(C(=O)c3ccc[nH]3)CC2)c(C(F)(F)F)c1 [SABIPORIDE]
0.028

Any idea what its IC50 is? The compound is N=C(N)NC(=O)c1ccc(C2CCN(C(=O)c3ccc(C(F)(F)F)cc3)CC2)c(C(F)(F)F)c1
0.32

Any idea what its IC50 is? The compound is CC(C)(C)C(=O)N1CCC(c2ccc(C(=O)NC(=N)N)cc2C(F)(F)F)CC1
0.072

(I) N=C(N)NC(=O)c1ccc(N2CCC(NC(=O)c3ccc[nH]3)CC2)c(C(F)(F)F)c1
(II) N=C(N)NC(=O)c1ccc(C2CCN(C(=O)c3ccc(O)cc3)CC2)c(C(F)(F)F)c1
Select one. Lower IC50: I or II Reply briefly: the label of your chosen item.
II
(II: 0.021 µM, I: 0.041 µM)

(I) N=C(N)NC(=O)c1ccc(C2CCN(C(=O)c3ccncc3)CC2)c(C(F)(F)F)c1
(II) CS(=O)(=O)c1ccccc1C(=O)N1CCC(c2ccc(C(=O)NC(=N)N)cc2C(F)(F)F)CC1
(III) N=C(N)NC(=O)c1ccc(N2CCCC(NC(=O)c3ccc[nH]3)C2)c(C(F)(F)F)c1 (racemic)
Order the records, beginning with the lowest IC50 and ending with the highest. Please list each label once, in the requested order.
I, II, III

(I) Cc1cc(C(=O)N2CCC(c3ccc(C(=O)NC(=N)N)cc3C(F)(F)F)CC2)nn1C
(II) N=C(N)NC(=O)c1ccc(C2CCN(C(=O)c3ccc(Cl)cc3)CC2)c(C(F)(F)F)c1
(III) N=C(N)NC(=O)c1ccc(C2CCN(C(=O)c3ccc(S(N)(=O)=O)cc3)CC2)c(C(F)(F)F)c1
Arrange these compounds by their IC50, starting with the largest number. Please list each label once, in the requested order.
II, I, III

Cited source: ChEMBL document CHEMBL2169836
